Test system: DU-145 prostate
Test: NCI-60 one-dose screen, 48 h (100 = growth as untreated, 0 = no growth, -100 = all killed)
Recorded Conditions: 10 µM unless noted
Compounds without any hit were thinned out: in the full panel of roughly 83,000, 20% have a hit. Active and inactive are the calls of the source. Rule for the calls: active = growth percent below 10; inactive = the rest.
Property Label: growth

Example cases with answers are listed next.
Molecule	growth
O=c1ccc(-c2nc(N3CCOCC3)c3ccccc3n2)c[nH]1	93.6% (inactive)
COc1cccc(-c2nc3occn3c2-c2ccnc(NCCCNS(=O)(=O)c3ccc(C(F)(F)F)cc3)n2)c1	89.2% (inactive)
NC(=O)Nc1ccc(-n2cnc3cc(-c4ccc(O)cc4)ccc32)cc1	107% (inactive)
CCCOC(=O)N[C@H]1CCc2cc(OC)c(OC)c(OC)c2-c2ccc(SC)c(=O)cc21	-18.3% (active)
O=S(=O)(NCCNc1nccc(-c2c(-c3cccc(O)c3)nc3occn23)n1)c1ccc(C(F)(F)F)cc1	108% (inactive)
COc1cc(NCCCCCNC(C)(C)C)c2ncccc2c1	112% (inactive)
COc1ccc(/C=C/c2nc(Nc3ccc(Cl)cc3)c3ccccc3n2)cc1	50.2% (inactive)
Clc1ccc(-c2ccc(CNCC3CCNCC3)o2)c(-c2ccccc2)c1	-94.2% (active)

As a next step, examine the molecule that follows.
// query Output measured growth for this item: COc1ccc(-c2nc3sccn3c2/C=C/C(=O)c2ccc3c(c2)OCO3)cc1
// result 113% (inactive)

====

Test system: NCI-H322M lung
Test: NCI-60 one-dose screen, 48 h (100 = growth as untreated, 0 = no growth, -100 = all killed)
Recorded Conditions: 10 µM unless noted
This is part of a sample that, as a whole, favours compounds with a hit. Of some 83,000 tested, about 20% had one in any assay.
Property Label: growth (%)
Enter your answer as a number in %; do not include the unit.

Example cases with answers are listed next.
Molecule	Target Or Test System	Property Label	Unit Tag	Val
COc1ccc(-c2[nH][nH]c(=O)c2-c2nc3ccccc3s2)cc1	NCI-H322M lung	growth	%	100
COC(=O)CNC(=O)[C@]12CCC(C)(C)C[C@H]1C1=CC[C@@H]3[C@@]4(C)Cc5c([nH]c6ccccc56)C(C)(C)[C@@H]4CC[C@@]3(C)[C@]1(C)CC2	NCI-H322M lung	growth	%	91.6
O=C1c2ccc3c4c(ccc(c24)C(=O)N1CCCNCc1ccccc1)C(=O)N(CCCNCc1ccccc1)C3=O	NCI-H322M lung	growth	%	-37.8
Cc1ccc(-n2nc3c(c(C#N)c2=O)CC(c2ccccc2[N+](=O)[O-])C([N+](=O)[O-])=C3O)cc1 (centres undefined)	NCI-H322M lung	growth	%	88
O=S(=O)(NCCNc1nccc(-c2c(-c3cccc(O)c3)nc3occn23)n1)c1ccc(Cl)cc1	NCI-H322M lung	growth	%	112

// query Write down measured growth (NCI-H322M lung) for this molecule. COc1ccc2c(c1)oc1c(C)c3c(c(C)c12)C(=O)N(N)C3=O
// result 32.3

// query Write down measured growth (NCI-H322M lung) for this molecule. COc1cc(C2=NN(C(C)=O)C(c3cc(OC)c(OC)c(OC)c3)C2)ccc1O (centres undefined)
// result 35.2

// query Write down measured growth (NCI-H322M lung) for this molecule. C#CCNC(=O)[C@]1(C)CC[C@]2(C)CC[C@@H]3C(=CC[C@H]4[C@@]3(C)CC[C@H]3C(C)(C)C(=O)CC[C@]43C)[C@@H]2C1
// result 90.9

The measurements presented in this section are drawn from PubChem BioAssay (NCI).
